For each of the compounds below, state its log10(IC50).
- assayed-target: human HDAC3/NCOR1 (Homo sapiens, UniProt O15379)
- Construct: purchased ENZO Life Sciences AG (Lausen, CH)
- Sequence (O15379 whole entry): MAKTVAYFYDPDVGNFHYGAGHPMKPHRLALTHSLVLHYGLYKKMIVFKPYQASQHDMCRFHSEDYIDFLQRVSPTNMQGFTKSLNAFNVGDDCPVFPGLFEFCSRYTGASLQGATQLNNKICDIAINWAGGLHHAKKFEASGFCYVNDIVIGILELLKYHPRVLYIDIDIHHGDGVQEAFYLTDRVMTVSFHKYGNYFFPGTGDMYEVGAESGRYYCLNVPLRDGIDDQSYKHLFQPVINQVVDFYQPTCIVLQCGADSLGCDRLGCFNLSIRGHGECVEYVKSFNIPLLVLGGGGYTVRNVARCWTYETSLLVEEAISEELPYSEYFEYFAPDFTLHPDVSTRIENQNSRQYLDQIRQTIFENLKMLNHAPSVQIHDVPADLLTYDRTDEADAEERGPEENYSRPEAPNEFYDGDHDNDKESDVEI
- Sequence (O75376 395-489 partner limits assumed): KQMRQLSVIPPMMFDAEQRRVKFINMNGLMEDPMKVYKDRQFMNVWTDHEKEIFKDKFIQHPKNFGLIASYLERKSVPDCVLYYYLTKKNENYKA
- assay-method-text: In vitro HDAC3 inhibition assay, fluorogenic p53 peptide Ac-RHKK(Acetyl)-AMC
- Type: biochemical
- experimental-context: 3 nM HDAC3, 20 µM substrate, 30 min, 37 °C
Note the log scale: values are log10 of IC50 expressed in µM.

Please give log10(IC50), item by item, for the list that follows.
1. Nc1ccccc1NC(=O)c1cnc(N2CCN(CCc3c[nH]c4ccccc34)CC2)cn1 [19g]
2. Nc1cc(F)ccc1NC(=O)c1cnc(N2CCNCC2)cn1 [23a]
3. COc1ccc(NC(=O)c2cnc(N3CCNCC3)cn2)c(N)c1 [27c]

(A)
1: -0.31; 2: -0.40; 3: 1.15

* * *

For each of the molecules below, state its inhibition at 1 µM.
- assayed-target: human HDAC8 (Homo sapiens)
- Construct: made in house
- Sequence (Q9BY41 whole entry): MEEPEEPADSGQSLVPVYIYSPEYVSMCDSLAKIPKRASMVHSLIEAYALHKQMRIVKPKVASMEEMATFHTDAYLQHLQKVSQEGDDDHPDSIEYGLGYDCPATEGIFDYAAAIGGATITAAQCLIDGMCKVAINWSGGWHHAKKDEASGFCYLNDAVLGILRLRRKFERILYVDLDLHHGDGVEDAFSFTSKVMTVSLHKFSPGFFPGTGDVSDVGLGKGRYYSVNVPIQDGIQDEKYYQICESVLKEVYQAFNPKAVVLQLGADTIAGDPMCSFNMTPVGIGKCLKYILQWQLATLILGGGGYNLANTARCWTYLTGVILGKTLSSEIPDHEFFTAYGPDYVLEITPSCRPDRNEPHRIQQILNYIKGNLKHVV
- assay-method-text: HDAC8 homogenous fluorescence assay with ZMAL substrate
- Type: biochemical
- experimental-context: read-out: HDAC8 (% Inhib.)
Answers are plain numbers, in %.

Solved cases below.
{"molecule": "Nc1ccccc1NC(=O)c1cnc(N2CCN(Cc3csc4ccccc34)CC2)cn1 [19e]", "unit-symbol": "%", "inhibition at 1 µM": 0}
{"molecule": "Nc1ccccc1NC(=O)c1cnc(N2CCN(Cc3ccccn3)CC2)cn1 [19d]", "unit-symbol": "%", "inhibition at 1 µM": 0}
{"molecule": "Nc1cc(F)ccc1NC(=O)c1cnc(N2CCNCC2)cn1 [23a]", "unit-symbol": "%", "inhibition at 1 µM": 0}

Please give inhibition at 1 µM, item by item, for the list that follows.
1. Nc1ccc(-c2ccccc2F)cc1NC(=O)c1cnc(N2CCN(CCc3c[nH]c4ccccc34)CC2)cn1 [21c]
2. Nc1ccc(-c2ccc(F)cc2)cc1NC(=O)c1cnc(N2CCN(CCc3c[nH]c4ccccc34)CC2)cn1 [21b]
3. Cn1cc(CN2CCN(c3cnc(C(=O)Nc4ccccc4N)cn3)CC2)c2ccccc21 [19k]
4. Nc1ccccc1NC(=O)c1cnc(N2CCN(CCc3ccccc3)CC2)cn1 [19a]
5. Cn1cc(CN2CCN(c3cnc(C(=O)Nc4cc(F)ccc4N)cn3)CC2)c2ccccc21 [23b]
6. Nc1ccccc1NC(=O)c1cnc(N2CCN(CCc3c[nH]c4ccccc34)CC2)cn1 [19g]

(A)
1: 0; 2: 0; 3: 0; 4: 0; 5: 38; 6: 0

Please give inhibition at 1 µM, item by item, for the list that follows.
1. Cn1cc(CN2CCN(c3ncc(C(=O)Nc4ccccc4N)cn3)CC2)c2ccccc21 [19j]
2. Nc1ccccc1NC(=O)c1cnc(N2CCN(CCc3ccc(Cl)cc3)CC2)cn1 [19b]
3. Nc1ccccc1NC(=O)c1cnc(N2CCN(Cc3c[nH]c4ccccc34)CC2)cn1 [19f]
4. Nc1ccccc1NC(=O)c1cnc(N2CCN(Cc3ccccn3)CC2)nc1 [19c]

(A)
0
3.4
0
0

* * *

For each of the compounds below, state its IC50.
- assayed-target: human HDAC9 (Homo sapiens)
- Construct: made in house
- Sequence (Q9UKV0 whole entry): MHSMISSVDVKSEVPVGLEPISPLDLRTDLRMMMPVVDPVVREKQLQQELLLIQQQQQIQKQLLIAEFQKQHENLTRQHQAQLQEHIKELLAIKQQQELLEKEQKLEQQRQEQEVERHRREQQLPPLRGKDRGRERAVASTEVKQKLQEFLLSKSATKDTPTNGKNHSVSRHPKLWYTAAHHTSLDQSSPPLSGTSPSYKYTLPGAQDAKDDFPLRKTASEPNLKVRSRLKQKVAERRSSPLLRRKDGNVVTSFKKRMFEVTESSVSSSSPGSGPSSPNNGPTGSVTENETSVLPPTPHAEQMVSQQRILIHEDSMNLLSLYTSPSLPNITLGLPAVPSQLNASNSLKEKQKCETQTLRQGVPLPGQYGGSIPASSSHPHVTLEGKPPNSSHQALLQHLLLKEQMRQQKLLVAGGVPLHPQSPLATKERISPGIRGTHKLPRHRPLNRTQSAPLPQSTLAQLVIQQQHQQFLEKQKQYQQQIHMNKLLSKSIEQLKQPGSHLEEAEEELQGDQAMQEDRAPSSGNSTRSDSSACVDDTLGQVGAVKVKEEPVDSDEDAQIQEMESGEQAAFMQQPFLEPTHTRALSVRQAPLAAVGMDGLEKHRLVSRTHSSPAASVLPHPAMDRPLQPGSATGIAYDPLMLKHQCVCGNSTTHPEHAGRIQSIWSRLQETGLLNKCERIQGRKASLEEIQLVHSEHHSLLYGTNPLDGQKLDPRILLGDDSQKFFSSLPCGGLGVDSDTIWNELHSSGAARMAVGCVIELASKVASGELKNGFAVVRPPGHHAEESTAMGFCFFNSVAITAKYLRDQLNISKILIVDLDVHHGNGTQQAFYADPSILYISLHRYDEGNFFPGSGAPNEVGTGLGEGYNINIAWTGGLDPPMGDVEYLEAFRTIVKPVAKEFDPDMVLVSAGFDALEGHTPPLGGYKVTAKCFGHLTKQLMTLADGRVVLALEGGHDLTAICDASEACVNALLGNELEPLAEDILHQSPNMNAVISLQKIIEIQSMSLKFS
- assay-method-text: HDAC9 dose response, substrate Abz-SRGGK(thio-TFA)FFRR-NH2
- Assay type: biochemical

{"compound": "Nc1ccccc1NC(=O)c1cnc(N2CCN(Cc3c[nH]c4ccccc34)CC2)cn1 [19f]", "IC50": "> 20 µM"}

The record that follows has no IC50 shown yet.
(Q) Param item = Cn1cc(CCN2CCN(c3cnc(C(=O)Nc4cc(-c5cccs5)ccc4N)cn3)CC2)c2ccccc21 [21a] ; retrieve measured IC50.
(A) > 20 µM
